Experiment: Toxicity in po dosed rat
Assay type: organism-based
Settings: in vivo
PARAMETER: LD50

- CCCC(=O)O: 8790 mg/kg

----------
Test: Chemical stability of the compound at 20 degC assessed as half life
Type: physicochemical
PARAMETER: half-life (h)

• O=C(O)C1C=C1 = 20

----------
Assay: Toxicity in po dosed mouse
Type: organism-based
Settings: in vivo
Documented LD50 across a set of compounds
PARAMETER: LD50 (mg/kg)

* C#CC(=O)O | 100
* C/C=C/C(=O)O | 400
* C=C(C)C(=O)O | 1600
* CCC(=O)O | 5100
* CC(=O)O | 4960

----------
System: Mus musculus
Experiment: Toxicity in po dosed ICR mouse assessed as decreased in mobility after 3 hrs
Format: organism-based
Details: in vivo
PARAMETER: LD100 (mg/kg)

* C/C=C/C(=O)O | 2500
* CC(=O)O | 2500
* CC1=CC1C(=O)O (stereo unspecified) | 50
* O=C(O)C1C=C1 | 2.5
* CCCC(=O)O | 5000

Numbers sourced from ChEMBL document CHEMBL1212720.
